kon overview
Molecular target: T1, Human ST2 (human, UniProt Q01638 19-328, limits assumed)
T1 construct: also called human ST2 protein; Interleukin 1 receptor-like 1
T1 sequence (looked up): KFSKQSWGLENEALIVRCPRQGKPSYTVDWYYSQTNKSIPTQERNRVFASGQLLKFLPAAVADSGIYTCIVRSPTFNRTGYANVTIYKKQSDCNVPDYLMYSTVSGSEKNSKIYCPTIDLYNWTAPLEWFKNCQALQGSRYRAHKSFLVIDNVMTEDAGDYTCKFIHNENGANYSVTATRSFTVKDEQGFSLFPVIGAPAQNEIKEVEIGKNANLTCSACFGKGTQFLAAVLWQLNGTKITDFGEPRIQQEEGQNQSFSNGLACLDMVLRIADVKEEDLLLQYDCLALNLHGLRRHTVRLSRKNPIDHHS
Experiment: SPR (Carterra), antibody immobilized, ST2 analyte
Experimental: Binding of the reformatted human ST2 antibodies to the human and mouse ST2 proteins was evaluated by surface plasmon resonance (SPR), using a high throughput antibody screening and characterization platform from Carterra (Salt Lake City, Utah).
// return the numeric value with its unit appended

Worked examples, 2 binders total:
binder="Human ST2 IgG1 Antibody 65 (antibody, V domains shown, IgG1; also called ST2 Antibody 65) VH: QVQLVQSGAEVKKPGSSVKVSCKASGGTFSSYAISWVRQAPGQGLEWMGGIIPIFGTANYAQKFQGRVTITADESTSTAYMELSSLRSEDTAVYYCARDNPDFDYWGQGTLVTVSS VL: DIQMTQSPSSLSASVGDRVTITCRASQGISNYLNWYQQKPGKAPKLLIYAASSLQSGVPSRFSGSGSGTDFTLTISSLQPEDFATYYCQQSYRTPITFGQGTRLEIKR" measurement_kind=kon readout_value="730000 M⁻¹ s⁻¹"
binder="Human ST2 IgG1 Antibody 22 (antibody, V domains shown, IgG1; also called ST2 Antibody 22) VH: EVQLLESGGGLVQPGGSLRLSCAASGFKFRTFWMNWVRQAPGKGLEWVSVISNGGDATHYADSVKGRFTISRDNSKNTLYLQMNSLRAEDTAVYYCARVDCSGGSCYLGYWGQGTLVTVSS VL: DIQMTQSPSSLSASVGDRVTITCRASESIGRYLNWYQQKPGKAPKLLIYGTSNLESGVPSRFSGSGSGTDFTLTISSLQPEDFATYYCQQSYSTPPTFGQGTKVEIKR" measurement_kind=kon readout_value="530000 M⁻¹ s⁻¹"

State its kon for this binder: Human ST2 IgG1 Antibody 27 (antibody, V domains shown, IgG1; also called ST2 Antibody 27) VH: QVQLVQSGAEVKKPGASVKVSCKASGYTFTGQYMHWVRQAPGQGLEWMGIINPSGGSTSYAQKFQGRVTMTRDTSTSTVYMELSSLRSEDTAVYYCAGSYYPYYYYGMDVWGQGTTVTVSS VL: DIQMTQSPSSLSASVGDRVTITCRASQNIGYFLHWYQQKPGKAPKLLIYAASSLQSGVPSRFSGSGSGTDFTLTISSLQPEDFATYYCQQSYSPPLTFGGGTKVEIKR
450000 M⁻¹ s⁻¹

Input Human ST2 IgG1 Antibody 86 (antibody, V domains shown, IgG1; also called ST2 Antibody 86) VH: QVQLVQSGAEVKKPGSSVKVSCKASGGTFSNYAISWVRQAPGQGLEWMGGIIPIFGTANYAQKFQGRVTITADESTSTAYMELSSLRSEDTAVYYCAKDLGGWFNLFDPWGQGTLVTVSS VL: EIVMTQSPATLSVSPGERATLSCRASQGVSSYLAWYQQKPGQAPRLLIYGASTRATGIPARFSGSGSGTEFTLTISSLQSEDFAVYYCQQYRSFPLTFGGGTKVEIKR , output reported kon.
720000 M⁻¹ s⁻¹

Report kon for Human ST2 IgG1 Antibody 14 (antibody, V domains shown, IgG1; also called ST2 Antibody 14) VH: QVQLVQSGAEVKKPGSSVKVSCKASGYTFTSYGISWVRQAPGQGLEWMGGIIPIFGTANYAPRFQGRVTITADESTSTAYMELSSLRSEDTAVYYCARDTVSMDVWGQGTTVTVSS VL: DIVMTQSPLSLPVTPGEPASISCRSSQSLLHSNGYNYLDWYLQKPGQSPQLLIYDASNLETGVPDRFSGSGSGTDFTLKISRVEAEDVGVYYCMQGAHWPPTFGQGTKLEIKR
400000 M⁻¹ s⁻¹

Answer with the recorded kon for the binder listed here: Human ST2 IgG1 Antibody 99 (antibody, V domains shown, IgG1; also called ST2 Antibody 99) VH: EVQLLESGGGLVQPGGSLRLSCAASGFTFSDYYMNWVRQAPGKGLEWVSTISGFGESTFYADSVKGRFTISRDNSKNTLYLQMNSLRAEDTAVYYCARLGAARAFDIWGQGTTVTVSS VL: DIQMTQSPSSLSASVGDRVTITCRASQSIGSWMAWYQQKPGKAPKLLIYAASTLQSGVPSRFSGSGSGTDFTLTISSLQPEDFATYYCQQSYTTPITFGPGTKVDIKR
460000 M⁻¹ s⁻¹

Give me measured kon, please, for this binder: Human ST2 IgG1 Antibody 60 (antibody, V domains shown, IgG1; also called ST2 Antibody 60) VH: QVQLVQSGAEVKKPGASVKVSCKASGYTFTDHYLHWVRQAPGQGLEWMGIINPSGGYTSHAQKFQGRVTMTRDTSTSTVYMELSSLRSEDTAVYYCARDRFRELLGSRYYGMDVWGQGTTVTVSS VL: DIQMTQSPSSLSASVGDRVTITCRASQDLSNHLAWYQQKPGKAPKLLIYAASTLQSGVPSRFSGSGSGTDFTLTISSLQPEDFATYYCQQYHDWPLTFGQGTKVEIKR
110000 M⁻¹ s⁻¹

Note kon for the binder shown: Human ST2 IgG1 Antibody 30 (antibody, V domains shown, IgG1; also called ST2 Antibody 30) VH: QVQLVQSGAEVKKPGSSVKVSCKASGYTFTTYGITWVRQAPGQGLEWMGGIIPIFGTANYAQKFQGRVTITADESTSTAYMELSSLRSEDTAVYYCAKLSGSSGSWDYYYYYGMDVWGQGTLVTVSS VL: DIVMTQSPLSLPVTPGEPASISCRSSQSLLHSNGYNYLDWYLQKPGQSPQLLIYAASNLQSGVPDRFSGSGSGTDFTLKISRVEAEDVGVYYCMQALQTPITFGQSTRLEIKR
190000 M⁻¹ s⁻¹

# return recorded kon for input Human ST2 IgG1 Antibody 94 (antibody, V domains shown, IgG1; also called ST2 Antibody 94) VH: QVQLVQSGAEVKKPGSSVKVSCKASGGILNSYAITWVRQAPGQGLEWMGRIIPILGIANYAQKFQGRVTITADESTSTAYMELSSLRSEDTAVYYCVENESGPLFDYWGQGTLVTVSS VL: EIVMTQSPATLSVSPGERATLSCRASQSVYSSYLAWYQQKPGQAPRLLIYGTSSRAAGIPARFSGSGSGTEFTLTISSLQSEDFAVYYCQQYYSTPYTFGQGTKVEIKR
130000 M⁻¹ s⁻¹

Please give the documented kon of Human ST2 IgG1 Antibody 4 (antibody, V domains shown, IgG1; also called ST2 Antibody 4) VH: QVQLVQSGAEVKKPGSSVKVSCKASGGTFSTFGVSWVRQAPGQGLEWMGRIIPILATTNYAQKFQGRVTITADESTSTAYMELSSLRSEDTAVYYCASGDYYDSSGYYGYFQHWGQGTLVTVSS VL: EIVMTQSPATLSVSPGERATLSCRASQSVSSSYLAWYQQKPGQAPRLLIYGASTRATGIPARFSGSGSGTEFTLTISSLQSEDFAVYYCQQSYSIPFTFGQGTKLEIKR
210000 M⁻¹ s⁻¹
